Every entry's value here was drawn from patent US20250340595A1.

- measured target: Human TfR1 protein (R&D Systems, 2474-TR or Acro Biosystems, CD1-H5243) (human, UniProt P02786 89-760)
- Sequence (P02786 89-760 limits assumed): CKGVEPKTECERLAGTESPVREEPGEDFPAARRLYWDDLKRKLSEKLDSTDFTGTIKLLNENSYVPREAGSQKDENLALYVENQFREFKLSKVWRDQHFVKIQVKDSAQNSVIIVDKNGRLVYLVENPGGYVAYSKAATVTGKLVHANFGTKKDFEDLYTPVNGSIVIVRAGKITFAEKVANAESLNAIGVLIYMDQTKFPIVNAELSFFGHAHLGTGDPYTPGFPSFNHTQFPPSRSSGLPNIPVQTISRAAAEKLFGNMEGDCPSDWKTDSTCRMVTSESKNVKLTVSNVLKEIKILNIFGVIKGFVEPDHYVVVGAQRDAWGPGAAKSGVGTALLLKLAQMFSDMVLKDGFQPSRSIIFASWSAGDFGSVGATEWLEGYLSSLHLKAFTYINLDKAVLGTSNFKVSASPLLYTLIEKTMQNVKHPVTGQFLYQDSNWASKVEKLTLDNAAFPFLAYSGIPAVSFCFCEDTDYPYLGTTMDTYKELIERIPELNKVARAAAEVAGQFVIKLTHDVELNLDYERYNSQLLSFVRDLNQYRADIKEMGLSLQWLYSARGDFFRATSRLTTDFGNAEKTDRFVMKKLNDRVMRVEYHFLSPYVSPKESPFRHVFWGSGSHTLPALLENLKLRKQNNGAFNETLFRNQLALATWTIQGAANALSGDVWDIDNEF
- procedure details: FP competition, competitor BCY15768
pKi: −log10 of the molar value. Starred links: 1 amine or outer side, 2 acyl side, 3 side chain; linkers in the order of their positions; H or OH if unused. Positions of bridges follow the written chain, without caps; N, C: chain ends. No end group written: not given here. TATB = O=C(C[*:1])N1CN(C(=O)C[*:2])CN(C(=O)C[*:3])C1
outcome measure: pKi

(P) TYMNCPPDAHLGCISYCA (linker 5-13-17 via TATB (inferred)) [BCY17117]
(Q) ACPPDSWQGCISYCA (linker 2-10-14 via TATB) [BCY13989]
Task: Select the item whose pKi value is smaller, choosing between P and Q . In your reply, give the label of the chosen option.
Output: Q
(Q: 6.25, P: 7.43)

(I) ACSADDWLGCISYCA (linker 2-10-14 via TATB) [BCY15471]
(II) ACSPDAHLGCISYCEHQE (linker 2-10-14 via TATB (inferred)) [BCY17119]
Task: Return label of the item with the larger pKi. Candidates: I , II . Kindly give the label for the entry you pick.
Output: II
(II: 6.80, I: 6.36)
